Values from patent US20060089371A1

Listing: pIC50 of selected molecules
target: IP receptor (Homo sapiens); construct: one million cells in 160 μl aliquot of cell suspension were put in a well of 96 well plate; test: IP receptor binding/cAMP in HEL cells ([3H]-iloprost binding, Assay 1; iloprost-induced cAMP production, Assay 2); conditions: compounds of about 40 to 90% purity, read-out: In vitro activity grade (IC50 class)
Sequence (P43119 whole entry): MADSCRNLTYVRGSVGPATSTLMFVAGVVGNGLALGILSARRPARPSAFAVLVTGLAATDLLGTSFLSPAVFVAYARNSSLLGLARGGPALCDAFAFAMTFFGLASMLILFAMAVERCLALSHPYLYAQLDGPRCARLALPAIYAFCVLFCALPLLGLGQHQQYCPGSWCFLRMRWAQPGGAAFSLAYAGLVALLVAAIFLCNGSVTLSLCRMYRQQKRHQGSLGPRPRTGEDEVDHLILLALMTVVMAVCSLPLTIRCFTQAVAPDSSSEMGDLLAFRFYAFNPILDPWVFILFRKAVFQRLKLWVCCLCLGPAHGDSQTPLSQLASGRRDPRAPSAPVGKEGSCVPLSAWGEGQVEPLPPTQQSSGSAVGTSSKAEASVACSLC
pIC50: −log10 of the molar value.

Below, 3 molecules whose answers are already recorded.
- molecule: "O=C(O)C(Cc1ccccn1)Nc1cc(-c2ccc(OCc3ccccc3F)cc2)ncn1 (stereo not drawn) [Example 2-32]"
  system under test: "IP receptor (Homo sapiens)"
  pIC50: "> 7.00"
- molecule: "O=C(O)C(Cc1ccccc1)Nc1cc(-c2ccc(Cl)cc2)ncn1 (stereo not drawn) [Example 1-55]"
  system under test: "IP receptor (Homo sapiens)"
  pIC50: "6.00 to 7.00"
- molecule: "O=C(O)C(Cc1ccccc1)Nc1cc(-c2ccc(OCc3ccccc3)cc2F)ncn1 (stereo not drawn) [Example 1-57]"
  system under test: "IP receptor (Homo sapiens)"
  pIC50: "6.00 to 7.00"

## Task Need pIC50, item COCC(Nc1cc(-c2ccc(OCc3ccccc3)cc2)ncn1)C(=O)O (stereo not drawn) [Example 1-34]
## Result > 7.00

## Task Proceed to O=C(O)C(Cc1ccccc1)Nc1cc(-c2ccc(F)cc2)ncn1 (stereo not drawn) [Example 1-52]
## Result 6.00 to 7.00

## Task Also O=C(c1ccc(-c2cc(NC(Cc3ccccc3)C(=O)O)ncn2)cc1)C1CCCC1 (stereo not drawn) [Example 17-3] ?
## Result > 7.00

## Task Input CCCCC(Nc1cc(-c2ccc(OCC3CC3)cc2)ncn1)C(=O)O (stereo not drawn) [Example 1-41]
## Result 6.00 to 7.00

## Task Same lookup for O=C(O)C(Cc1ccccc1)Nc1ncnc(-c2ccc(OCc3ccccc3)cc2)c1F (stereo not drawn) [Example 1-20] , please.
## Result > 7.00

## Task Quick one: O=C(O)C(Cc1ccccc1)Nc1cc(-c2ccc(OCc3cccc(F)c3)cc2)ncn1 (stereo not drawn) [Example 2-3]
## Result > 7.00

## Task Then what about the molecule O=C(O)C(Cc1ccccn1)Nc1cc(-c2ccc(OCc3ccccc3)c(F)c2)ncn1 (stereo not drawn) [Example 1-46] ?
## Result > 7.00

## Task Now give it for O=C(O)C(Cc1ccccc1)Nc1cc(-c2ccc(-c3cccc(-c4ccccc4)c3)cc2)ncn1 (stereo not drawn) [Example 11-6] too.
## Result 6.00 to 7.00

## Task Same question for CCC(C)C(Nc1cc(-c2ccc(OCc3ccccc3)cc2)ncn1)C(=O)O (stereo not drawn) [Example 1-11] please.
## Result 6.00 to 7.00

## Task Also, O=C(O)[C@H](Cc1ccccc1)Nc1nccc(-c2ccc(OCc3ccccc3)cc2)n1 [Example 29-1] please.
## Result > 7.00
